Reported inhibition is given for each of the following compounds.
molecular target: Mushroom tyrosinase (Agaricus bisporus) (UniProt O42713+Q00024+C7FF04+C7FF05); conditions: dose 50.0 µM
Description: Inhibition of mushroom tyrosinase using PNP-G as substrate at 50 nM relative to control

Some entries whose results are on file:
{"columns": ["COMPOUND", "SYSTEM", "RESULT"],
 "data": [
  ["CCn1c(N/N=C/c2nc3ccccc3[nH]2)nc2c1c(=O)n(C)c(=O)n2C", "Mushroom tyrosinase (Agaricus bisporus) (UniProt O42713+Q00024+C7FF04+C7FF05)", "27%"],
  ["CCn1c(Oc2ccc(-c3nnc(NC(C)=O)s3)cc2)nc2c1c(=O)n(C)c(=O)n2C", "Mushroom tyrosinase (Agaricus bisporus) (UniProt O42713+Q00024+C7FF04+C7FF05)", "33.6%"],
  ["CCn1c(Oc2ccc(/C=N/N=C3/NC(=O)CS3)cc2)nc2c1c(=O)n(C)c(=O)n2C", "Mushroom tyrosinase (Agaricus bisporus) (UniProt O42713+Q00024+C7FF04+C7FF05)", "29.4%"],
  ["CCn1c(Oc2ccc(/C=N\\Nc3c(F)c(F)c(F)c(F)c3F)cc2)nc2c1c(=O)n(C)c(=O)n2C", "Mushroom tyrosinase (Agaricus bisporus) (UniProt O42713+Q00024+C7FF04+C7FF05)", "> 40%"],
  ["CCn1c(Oc2ccc(/C=N/NC(N)=S)cc2)nc2c1c(=O)n(C)c(=O)n2C", "Mushroom tyrosinase (Agaricus bisporus) (UniProt O42713+Q00024+C7FF04+C7FF05)", "> 40%"]
]}

Give inhibition for this entry on Mushroom tyrosinase (Agaricus bisporus) (UniProt O42713+Q00024+C7FF04+C7FF05): CCn1c(Oc2ccc(C3C(C#N)=C(N)Oc4[nH]c(=S)[nH]c(=O)c43)cc2)nc2c1c(=O)n(C)c(=O)n2C (configuration not stated) 32.7%

# assay system Mushroom tyrosinase (Agaricus bisporus) (UniProt O42713+Q00024+C7FF04+C7FF05): give inhibition of CCn1c(Oc2ccc(/C=N\NC(=O)c3cccnc3)cc2)nc2c1c(=O)n(C)c(=O)n2C 40.3%

====

molecular target: Mushroom tyrosinase (Agaricus bisporus) (UniProt O42713+Q00024+C7FF04+C7FF05); details: dose 50.0 µM
OUTCOME MEASURE: inhibition

{"columns": ["MOLECULE", "inhibition"],
 "data": [
  ["CCn1c(Oc2ccc(C=C(C#N)C#N)cc2)nc2c1c(=O)n(C)c(=O)n2C", "> 40%"],
  ["CCn1c(NN)nc2c1c(=O)n(C)c(=O)n2C", "> 40%"],
  ["CCn1c(Oc2ccc(C3C4=C(CC(C)(C)CC4=O)NC4=C3C(=O)CC(C)(C)C4)cc2)nc2c1c(=O)n(C)c(=O)n2C", "> 40%"],
  ["CCn1c(Oc2ccc(/C=N/N=C3/C(=O)Nc4ccccc43)cc2)nc2c1c(=O)n(C)c(=O)n2C", "> 40%"],
  ["CCn1c(Oc2ccc(C=O)cc2)nc2c1c(=O)n(C)c(=O)n2C", "29.5%"],
  ["CCn1c(Oc2ccc(-c3nc(-c4ccccc4)c(-c4ccccc4)[nH]3)cc2)nc2c1c(=O)n(C)c(=O)n2C", "> 40%"],
  ["CCn1c(Oc2ccc(/C=N/N)cc2)nc2c1c(=O)n(C)c(=O)n2C", "> 40%"],
  ["CCn1c(Oc2ccc(/C=N/Nc3ccccn3)cc2)nc2c1c(=O)n(C)c(=O)n2C", "> 40%"]
]}

State its inhibition for this molecule: CCn1c(Oc2ccc(C=C3C(=O)NC(=S)NC3=O)cc2)nc2c1c(=O)n(C)c(=O)n2C 30.2%
